Tested on: oligodendrocyte NMDA receptor (NR1-containing; probably NR1, NR2C and NR3)
method_description: whole-cell patch clamp of NMDA-evoked current, […] min memantine pre-exposure
Assay type: cell-based, Rattus norvegicus
attribute_measured: pIC50
Reminder that pIC50 is minus the log10 of a molar concentration.

Specify pIC50 for CC12CC3CC(C)(C1)CC(N)(C3)C2 [memantine] , system oligodendrocyte NMDA receptor (NR1-containing; probably NR1, NR2C and NR3).
4.27
